assaySystem: HNF4alpha2 (COS-7 nuclear extract) (Homo sapiens, UniProt P41235 1-474)
Sequence: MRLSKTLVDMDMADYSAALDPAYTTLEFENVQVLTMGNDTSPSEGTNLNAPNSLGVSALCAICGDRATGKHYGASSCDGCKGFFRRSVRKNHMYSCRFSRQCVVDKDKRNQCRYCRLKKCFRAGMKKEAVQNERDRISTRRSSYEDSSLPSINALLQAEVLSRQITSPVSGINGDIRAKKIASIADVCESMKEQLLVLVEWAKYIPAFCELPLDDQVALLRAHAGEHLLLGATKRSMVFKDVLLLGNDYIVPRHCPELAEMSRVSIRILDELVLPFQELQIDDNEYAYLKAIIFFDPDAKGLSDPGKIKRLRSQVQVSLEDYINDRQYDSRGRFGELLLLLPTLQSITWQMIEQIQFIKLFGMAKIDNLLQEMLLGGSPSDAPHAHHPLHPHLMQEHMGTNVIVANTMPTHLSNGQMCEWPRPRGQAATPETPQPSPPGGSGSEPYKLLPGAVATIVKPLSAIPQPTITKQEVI
protocolNotes: protein-binding microarray; COS-7 nuclear extract on double-stranded Agilent 4x180k PBM; binding buffer, salt, pH and temperature not given in the material; high values mean tight binding
conditionContext: chain copies: 2; label: 3' end of strand 1 on the slide; dsDNA, one strand shown
In all, about 18,000 sequences were measured (“log2 normalized intensity”: median about 0.39, highest 2% from about 6.6 on). Many of the other results were omitted from the sample, so the highest values are more common in it than they were.
readoutLabel: binding signal (log2 normalized intensity)
The figure you give is taken to be in log2 normalized intensity; do not add the unit.

INSERT INTO results (biosequence, readoutlabel, reading) VALUES
  ('GGAGTGACCCTGGGAGCAAAGGTCAAGAGTGCCTAGGGAGATTAGAGTATCGGTCGA', 'binding signal', 6.55);

Entry AAGCTCTGGAGTCCAAAGGTCAGCAAGCCTGCCTAGGGAGATTAGAGTATCGGTCGA ; binding signal = 7.73

Entry GCCTTGCTGAGGAATTTGGACTTCAGCCCAGCCTAGGGAGATTAGAGTATCGGTCGA ; binding signal = 6.11

Entry CTTTGCTCCCACCCTGCAATTCCCCTGGGCGCCTAGGGAGATTAGAGTATCGGTCGA ; binding signal = 3.29

Entry TCAGCCTTAACTCAAAAGGCCAAAGTCCAAGCCTAGGGAGATTAGAGTATCGGTCGA ; binding signal = 8.38

Entry TTTCTCCTCTCTGGGCTTCCATTGTGATTCGCCTAGGGAGATTAGAGTATCGGTCGA ; binding signal = 1.02

Entry AAAGGGACTCATCTCCAAACGAGACTTTGGGCCTAGGGAGATTAGAGTATCGGTCGA ; binding signal = 1.6

Entry CCTCGCCTATGGTATGTATGGAATGTCACTGCCTAGGGAGATTAGAGTATCGGTCGA ; binding signal = 1.63

Hello, the source for this data is paper PMC10726135, in case you need it.
